# protocol: Fraction unbound in iv dosed C57Bl/6JRccHsd mouse plasma measured at 20 mins post dose pretreated with 50 umol/kg, ip prolyl oligopeptidase inhibitor KYP-2047 10 mins before compound dosing by SPECT analysis
# Format: ADME, organism-based
measure-name: fraction unbound at 20 min

smiles-str | numeric-result
N#C[C@@H]1CCCN1C(=O)[C@@H]1CCCN1C(=O)CCCc1ccc([123I])cc1 | 0.47

---

# protocol: Octanol-phosphate buffer partition coefficient, log P of the compound by shake-flask method
# Format: physicochemical

smiles-str | logP
N#C[C@@H]1CCCN1C(=O)[C@@H]1CCCN1C(=O)CCCc1ccc([123I])cc1 | 2.37
